Just for reference, patent US20180371107A1 is where these values come from.

SYSTEM: T1, mouse NSP4 (mNSP4), form not stated in Example 6 (mouse, UniProt Q14B24 40-284, limits assumed)
T1 construct: also called recombinant mouse NSP4; purified mouse NSP4
T1 sequence (looked up): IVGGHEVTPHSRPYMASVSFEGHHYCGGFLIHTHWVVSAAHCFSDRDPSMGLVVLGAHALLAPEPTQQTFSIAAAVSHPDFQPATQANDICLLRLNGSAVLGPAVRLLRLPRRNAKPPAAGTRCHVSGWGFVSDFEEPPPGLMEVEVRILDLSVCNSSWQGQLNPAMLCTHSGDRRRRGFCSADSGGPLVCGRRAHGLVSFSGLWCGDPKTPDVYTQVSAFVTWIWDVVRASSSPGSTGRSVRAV
TEST: phage competition binding assay (phage IC50), soluble mNSP4 competitor
Give pIC50 for every item shown.
One number for each entry, as −log10 of the molar value.

Worked cases, answers included:
>>> observed("anti-NSP4 antibody 3-5 (antibody, V domains shown, also called Ab 3-5; Ab35) VH: EVQLVESGGGLVQPGGSLRLSCAASGFTFSDNDISWVRQAPGKGLEWVGSISPDNGDTNYADSVKGRFTISADTSKNTAYLQMNSLRAEDTAVYYCARDDVPAVFTSAMDYWGQGTLVTVSS VL: DIQMTQSPSSLSASVGDRVTITCRASQDVSTAVAWYQQKPGKAPKLLIYSASFLYSGVPSRFSGSGSGTDFTLTISSLQPEDFATYYCQQSYTTPPTFGQGTKVEIKR")
9.88
>>> observed("affinity matured anti-NSP4 antibody clone 35.14 (Fab, V domains shown) VH: EVQLVESGGGLVQPGGSLRLSCAASGFTFSDNDISWVRQAPGKGLEWVGSISPDNGDTNYADSVKGRFTISADTSKNTAYLQMNSLRAEDTAVYYCARDDVPAVFTSAMDYWGQGTLVTVSS VL: DIQMTQSPSSLSASVGDRVTITCRASQDVSTAVAWYQQKPGKAPKLLIYSASFLYSGVPSRFSGSGSGTDFTLTISSLQPEDFATYYCQQSYGFPLTFGQGTKVEIKR")
10.32
>>> observed("anti-NSP4 antibody 5-1 (antibody, V domains shown, also called Ab 5-1; Ab5-1) VH: EVQLVESGGGLVQPGGSLRLSCAASGFTFSGSGIHWVRQAPGKGLEWVAWISPTGGNTYYADSVKGRFTISADTSKNTAYLQMNSLRAEDTAVYYCAKSLFHNVAFDYWGQGTLVTVSS VL: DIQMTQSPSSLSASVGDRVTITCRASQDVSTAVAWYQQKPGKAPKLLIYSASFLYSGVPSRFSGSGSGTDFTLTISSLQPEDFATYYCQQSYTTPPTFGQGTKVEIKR")
7.73
>>> observed("affinity matured anti-NSP4 antibody clone 51.50 (Fab, V domains shown) VH: EVQLVESGGGLVQPGGSLRLSCAASGFTFSGSGIHWVRQAPGKGLEWVAWISPTGGNTYYADSVKGRFTISADTSKNTAYLQMNSLRAEDTAVYYCAKSLFHNVAFDYWGQGTLVTVSS VL: DIQMTQSPSSLSASVGDRVTITCRASQDVSTAVAWYQQKPGKAPKLLIYSASFLYSGVPSRFSGSGSGTDFTLTISSLQPEDFATYYCQQANSTPPTFGQGTKVEIKR")
9.98
>>> observed("affinity matured anti-NSP4 antibody clone 51.30 (Fab, V domains shown) VH: EVQLVESGGGLVQPGGSLRLSCAASGFTFSGSGIHWVRQAPGKGLEWVAWIPTAGGNTYYADSVKGRFTISADTSKNTAYLQMNSLRAEDTAVYYCAKSLFHNVAFDYWGQGTLVTVSS VL: DIQMTQSPSSLSASVGDRVTITCRASQDVSTAVAWYQQKPGKAPKLLIYSASFLYSGVPSRFSGSGSGTDFTLTISSLQPEDFATYYCQQSYTAPPTFGQGTKVEIKR")
9.94
>>> observed("affinity matured anti-NSP4 antibody clone 51.51 (Fab, V domains shown) VH: EVQLVESGGGLVQPGGSLRLSCAASGFTFSGSGIHWVRQAPGKGLEWVAWISPTGGNTYYADSVKGRFTISADTSKNTAYLQMNSLRAEDTAVYYCARGLFHNVAFDYWGQGTLVTVSS VL: DIQMTQSPSSLSASVGDRVTITCRASQDVSTAVAWYQQKPGKAPKLLIYSASFLYSGVPSRFSGSGSGTDFTLTISSLQPEDFATYYCQQSYTAPPTFGQGTKVEIKR")
9.53

State the recorded pIC50 for every item in the following list.
1. affinity matured anti-NSP4 antibody clone 35.77 (Fab, V domains shown) VH: EVQLVESGGGLVQPGGSLRLSCAASGFTFSGSGIHWVRQAPGKGLEWVAWISPTGGNTYYADSVKGRFTISADTSKNTAYLQMNSLRAEDTAVYYCAKRHLHNVAFDYWGQGTLVTVSS VL: DIQMTQSPSSLSASVGDRVTITCRASQDVSTAVAWYQQKPGKAPKLLIYSASFLYSGVPSRFSGSGSGTDFTLTISSLQPEDFATYYCQQAYSAPPTFGQGTKVEIKR
2. affinity matured anti-NSP4 antibody clone 51.82 (Fab, V domains shown) VH: EVQLVESGGGLVQPGGSLRLSCAASGFTFSGSGIHWVRQAPGKGLEWVAWISPTGGNTYYADSVKGRFTISADTSKNTAYLQMNSLRAEDTAVYYCARGLFHNVAFDYWGQGTLVTVSS VL: DIQMTQSPSSLSASVGDRVTITCRASQDVSTAVAWYQQKPGKAPKLLIYSASFLYSGVPSRFSGSGSGTDFTLTISSLQPEDFATYYCQQTYNAPPTFGQGTKVEIKR
3. affinity matured anti-NSP4 antibody clone 51.72 (Fab, V domains shown) VH: EVQLVESGGGLVQPGGSLRLSCAASGFTFSGSGIHWVRQAPGKGLEWVAWISPTGGNTYYADSVKGRFTISADTSKNTAYLQMNSLRAEDTAVYYCAKSLFHNVAFDYWGQGTLVTVSS VL: DIQMTQSPSSLSASVGDRVTITCRASQDVSTAVAWYQQKPGKAPKLLIYSASFLYSGVPSRFSGSGSGTDFTLTISSLQPEDFATYYCQQSYTAPPTFGQGTKVEIKR
4. affinity matured anti-NSP4 antibody clone 35.50 (Fab, V domains shown) VH: EVQLVESGGGLVQPGGSLRLSCAASGFTFSDNDISWVRQAPGKGLEWVGSISPDNGDTNYADSVKGRFTISADTSKNTAYLQMNSLRAEDTAVYYCARDDVPAVFTSAMDYWGQGTLVTVSS VL: DIQMTQSPSSLSASVGDRVTITCRASQDVSTAVAWYQQKPGKAPKLLIYSASFLYSGVPSRFSGSGSGTDFTLTISSLQPEDFATYYCQQSYDFPLTFGQGTKVEIKR
5. affinity matured anti-NSP4 antibody clone 35.62 (Fab, V domains shown) VH: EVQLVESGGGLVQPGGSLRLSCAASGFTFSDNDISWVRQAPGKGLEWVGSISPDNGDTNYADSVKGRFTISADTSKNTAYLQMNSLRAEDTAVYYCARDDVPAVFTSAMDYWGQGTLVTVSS VL: DIQMTQSPSSLSASVGDRVTITCRASQDVSTAVAWYQQKPGKAPKLLIYSASFLYSGVPSRFSGSGSGTDFTLTISSLQPEDFATYYCQQSAGFPLTFGQGTKVEIKR

10.19
10.43
9.43
10.12
9.69
